All figures here come from patent US8680108B2.

A collection of compounds and their measured pIC50
system_under_test: PI3Kδ (p110δ/p85α) (Homo sapiens, UniProt O00329)
Construct: purchased Millipore (Bedford, Mass.)
Sequence (O00329 whole entry): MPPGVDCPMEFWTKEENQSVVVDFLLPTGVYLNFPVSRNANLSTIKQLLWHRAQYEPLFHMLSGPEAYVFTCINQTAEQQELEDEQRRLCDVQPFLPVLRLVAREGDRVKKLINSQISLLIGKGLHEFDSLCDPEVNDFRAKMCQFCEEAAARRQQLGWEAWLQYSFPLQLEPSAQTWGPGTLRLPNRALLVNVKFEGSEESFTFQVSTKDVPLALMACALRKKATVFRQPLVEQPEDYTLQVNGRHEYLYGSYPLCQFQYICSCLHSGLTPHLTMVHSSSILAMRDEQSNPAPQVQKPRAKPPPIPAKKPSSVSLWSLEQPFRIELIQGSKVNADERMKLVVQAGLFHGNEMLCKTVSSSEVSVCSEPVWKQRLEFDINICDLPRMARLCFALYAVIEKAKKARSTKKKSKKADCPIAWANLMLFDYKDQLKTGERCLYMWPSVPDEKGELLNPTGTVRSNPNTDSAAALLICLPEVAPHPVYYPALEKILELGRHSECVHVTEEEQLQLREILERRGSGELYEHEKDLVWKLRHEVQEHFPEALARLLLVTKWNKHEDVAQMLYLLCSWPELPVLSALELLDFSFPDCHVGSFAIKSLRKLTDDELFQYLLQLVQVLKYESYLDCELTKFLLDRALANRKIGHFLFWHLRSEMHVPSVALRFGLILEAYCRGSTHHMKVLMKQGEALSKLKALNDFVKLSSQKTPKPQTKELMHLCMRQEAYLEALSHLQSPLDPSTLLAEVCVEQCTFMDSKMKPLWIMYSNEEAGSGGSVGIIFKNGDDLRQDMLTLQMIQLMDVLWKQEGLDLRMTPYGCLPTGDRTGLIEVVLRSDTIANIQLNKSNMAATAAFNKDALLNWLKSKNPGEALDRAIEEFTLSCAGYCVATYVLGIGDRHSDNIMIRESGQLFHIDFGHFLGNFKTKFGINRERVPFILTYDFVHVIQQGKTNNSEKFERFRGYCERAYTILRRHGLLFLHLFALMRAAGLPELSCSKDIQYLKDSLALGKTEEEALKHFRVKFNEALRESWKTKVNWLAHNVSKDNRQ
Sequence (P27986 whole entry partner): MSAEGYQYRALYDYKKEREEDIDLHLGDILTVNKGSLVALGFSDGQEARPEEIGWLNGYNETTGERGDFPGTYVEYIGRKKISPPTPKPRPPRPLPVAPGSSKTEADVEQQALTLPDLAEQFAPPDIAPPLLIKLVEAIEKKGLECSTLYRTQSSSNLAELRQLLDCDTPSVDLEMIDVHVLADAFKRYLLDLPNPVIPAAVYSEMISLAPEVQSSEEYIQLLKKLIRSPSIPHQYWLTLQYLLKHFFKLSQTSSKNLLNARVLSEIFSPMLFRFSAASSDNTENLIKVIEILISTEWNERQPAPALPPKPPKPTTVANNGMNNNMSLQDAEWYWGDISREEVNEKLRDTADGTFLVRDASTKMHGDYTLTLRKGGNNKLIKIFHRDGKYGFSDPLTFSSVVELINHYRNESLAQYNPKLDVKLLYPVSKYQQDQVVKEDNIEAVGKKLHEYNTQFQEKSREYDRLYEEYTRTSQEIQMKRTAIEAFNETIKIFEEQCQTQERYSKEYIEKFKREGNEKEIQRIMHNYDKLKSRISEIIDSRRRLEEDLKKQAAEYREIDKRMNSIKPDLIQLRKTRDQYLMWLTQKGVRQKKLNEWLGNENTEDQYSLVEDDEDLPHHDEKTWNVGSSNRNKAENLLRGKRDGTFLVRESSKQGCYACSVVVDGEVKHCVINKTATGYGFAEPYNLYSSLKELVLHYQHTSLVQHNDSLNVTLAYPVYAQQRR
assay: PI3Kδ scintillation proximity assay
Assay type: biochemical
Method: Materials: [γ-^33P]ATP (10 mCi/mL) was purchased from Perkin-Elmer (Waltham, Mass.). […] Assay: The kinase reaction was conducted in polystyrene 384-well matrix white plate from Thermo Fisher Scientific in a final volume of 25 μL. […] After the plate sealing, plates were shaken overnight at room temperature and centrifuged at 1800 rpm for 10 minutes, the radioactivity of the product was determined by scintillation counting on Topcount (Perkin-Elmer). […]
pIC50: −log10 of the molar value. Structures can show the parent of a compound that is named as a salt.
readout_kind: pIC50

| compound | system_under_test | endpoint_result |
| --- | --- | --- |
| CC(Nc1ncnc2[nH]cnc12)c1cc(Cl)c2cccnc2c1N1CCC(O)CC1 (centres unmarked) | PI3Kδ (p110δ/p85α) (Homo sapiens, UniProt O00329) | > 7.30 |
| CC(Nc1ncnc2[nH]cnc12)c1cc(F)c2cccnc2c1N1CCN(C(=O)c2cnn(C)c2)CC1 (centres unmarked) [Example 103, bis(trifluoroacetate)] | PI3Kδ (p110δ/p85α) (Homo sapiens, UniProt O00329) | > 7.30 |
| CC(Nc1ncnc2[nH]cnc12)c1cc(Cl)c2cccnc2c1N1CCC(c2ccccc2)CC1 (centres unmarked) [Example 72, bis(trifluoroacetate)] | PI3Kδ (p110δ/p85α) (Homo sapiens, UniProt O00329) | < 6.00 |
| CC(Nc1nc(N)nc2[nH]cnc12)c1cc(F)c2ccnnc2c1-c1cccc(F)c1 (single isomer, unassigned) | PI3Kδ (p110δ/p85α) (Homo sapiens, UniProt O00329) | > 7.30 |
| CC(Nc1ncnc2[nH]cnc12)c1cc(Cl)c2cccnc2c1-c1cccc(F)c1 (centres unmarked) [Example 15, bis-trifluoroacetate] | PI3Kδ (p110δ/p85α) (Homo sapiens, UniProt O00329) | > 7.30 |
| CC(Nc1ncnc2[nH]cnc12)c1cc(Cl)c2cccnc2c1N1CCN(Cc2ccncc2)CC1 (centres unmarked) [Example 74, tris(trifluoroacetate)] | PI3Kδ (p110δ/p85α) (Homo sapiens, UniProt O00329) | > 7.30 |
| Cc1cc(C(C)Nc2ncnc3[nH]cnc23)c(-c2cc(F)cc(F)c2)c2nnccc12 (single isomer, unassigned) [Example 39] | PI3Kδ (p110δ/p85α) (Homo sapiens, UniProt O00329) | < 6.00 |
| CC(Nc1ncnc2[nH]cnc12)c1cc(Cl)c2cccnc2c1N1CCN(C(=O)c2cnccn2)CC1 (centres unmarked) [Example 97, bis(trifluoroacetate)] | PI3Kδ (p110δ/p85α) (Homo sapiens, UniProt O00329) | > 7.30 |
| CC(Nc1ncnc2[nH]cnc12)c1ccc2cccnc2c1-c1cc(F)cc(F)c1 (centres unmarked) [Example 6, bis-trifluoroacetate] | PI3Kδ (p110δ/p85α) (Homo sapiens, UniProt O00329) | 6.00 to 6.30 |
| CC(Nc1ncnc2[nH]cnc12)c1cc(Cl)c2cccnc2c1N1CCC(CCO)CC1 (centres unmarked) [Example 73, bis(trifluoroacetate)] | PI3Kδ (p110δ/p85α) (Homo sapiens, UniProt O00329) | 6.60 to 7.00 |
| CC(Nc1ncnc2[nH]cnc12)c1cc(F)c2cccnc2c1N1CCN(C2CCC2)CC1 (centres unmarked) | PI3Kδ (p110δ/p85α) (Homo sapiens, UniProt O00329) | > 7.30 |
| CC(Nc1ncnc2[nH]cnc12)c1cc(Cl)c2ccccc2c1-c1cccc(F)c1 (centres unmarked) | PI3Kδ (p110δ/p85α) (Homo sapiens, UniProt O00329) | 6.60 to 7.00 |
| COCCN1CCN(c2c(C(C)Nc3ncnc4[nH]cnc34)cc(Cl)c3cccnc23)CC1 (centres unmarked) [Example 11, tris-trifluoroacetate] | PI3Kδ (p110δ/p85α) (Homo sapiens, UniProt O00329) | > 7.30 |
| CC(Nc1ncnc2[nH]cnc12)c1cc(Cl)c2ccnnc2c1-c1cncc(F)c1 (single isomer, unassigned) [Example 35, trifluoroacetate] | PI3Kδ (p110δ/p85α) (Homo sapiens, UniProt O00329) | < 6.00 |
